Let's look at some molecules and their measured GI50.
# assayExplanation: Cytotoxicity against human HL60 cells by alamar blue assay
# Assay type: cell-based, HL-60
readoutKind: GI50 (µM)

>>> df
                    compoundstructurestring  readoutkind  boundoperator  valuereported
0                         Cc1c(O)c(=O)ccn1C         GI50              >            100
1                  CCCCCCCCn1ccc(=O)c(O)c1C         GI50              =           11.2
2  CC(=O)N(O)CCCCCNC(=O)CCC(=O)N(O)CCCCCNC(=O)CCC(=O)N(O)CCCCCN         GI50              =           18.4
3                       Cc1c(O)c(=O)ccn1CCN         GI50              =            111
4                CCCCCCCCCCn1ccc(=O)c(O)c1C         GI50              =            6.3
5   Cc1c(O)c(=O)ccn1CCCCNc1ccnc2cc(Cl)ccc12         GI50              =           50.3
6                  NCCCCNc1ccnc2cc(Cl)ccc12         GI50              >            100
7       Cc1c(O)c(=O)ccn1CCCCNc1ccnc2ccccc12         GI50              >            100

Cited source for all entries: ChEMBL document CHEMBL2331350
